The reported measurements were obtained from patent US20210155689A1.

target entity: T1, human LAG-3 protein with hFc tag (hLAG-3-hFc protein) (human, UniProt P18627 23-450)
T1 construct: also called immunogen 1; LAG-3 extracellular domain protein; not shown: human IgG Fc fragment (hFc) of the pCpC vector
T1 sequence: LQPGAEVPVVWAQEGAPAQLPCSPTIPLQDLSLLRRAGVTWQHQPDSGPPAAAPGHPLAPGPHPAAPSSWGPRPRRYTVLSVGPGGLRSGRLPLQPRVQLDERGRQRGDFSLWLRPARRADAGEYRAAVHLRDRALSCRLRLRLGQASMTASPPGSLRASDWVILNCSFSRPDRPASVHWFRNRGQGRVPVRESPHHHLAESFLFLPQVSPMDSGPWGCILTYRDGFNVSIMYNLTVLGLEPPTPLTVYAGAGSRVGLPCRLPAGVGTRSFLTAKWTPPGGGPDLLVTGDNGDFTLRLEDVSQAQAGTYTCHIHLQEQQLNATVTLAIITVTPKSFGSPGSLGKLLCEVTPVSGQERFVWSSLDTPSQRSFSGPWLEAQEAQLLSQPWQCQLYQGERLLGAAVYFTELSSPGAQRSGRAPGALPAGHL
assay notes: FACS, blocks LAG-3-hFc binding to MHC II on Raji; 7.407 nM
outcome measure: Inhibition rate (%)
Give a bare numeral; the unit % is implied.

[[record]]
binder = "556F6B8 (mouse antibody purified from hybridoma) (antibody, V domains shown, also called mAb123-556F6B8) VH: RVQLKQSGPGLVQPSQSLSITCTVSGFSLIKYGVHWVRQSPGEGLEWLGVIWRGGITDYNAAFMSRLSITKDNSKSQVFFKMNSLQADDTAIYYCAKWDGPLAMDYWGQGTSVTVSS VL: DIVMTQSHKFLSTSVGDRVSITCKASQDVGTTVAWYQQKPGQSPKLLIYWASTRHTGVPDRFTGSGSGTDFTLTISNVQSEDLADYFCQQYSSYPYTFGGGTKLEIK"
measured_value = 93.3

[[record]]
binder = "409B11E12 (mouse antibody purified from hybridoma) (antibody, V domains shown, also called mAb104-409B11E12) VH: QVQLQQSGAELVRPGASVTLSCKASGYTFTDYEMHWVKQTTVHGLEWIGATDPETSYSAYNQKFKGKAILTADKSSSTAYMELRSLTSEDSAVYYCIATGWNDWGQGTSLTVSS VL: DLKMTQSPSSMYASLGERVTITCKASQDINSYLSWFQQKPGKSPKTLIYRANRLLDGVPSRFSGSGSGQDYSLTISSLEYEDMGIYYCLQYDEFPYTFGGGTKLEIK"
measured_value = 93.4


Read the next record carefully.
# get_value(readout='Inhibition rate (%)', item= 409D4E10 (mouse antibody purified from hybridoma) (antibody, V domains shown, also called mAb112-409D4E10) VH: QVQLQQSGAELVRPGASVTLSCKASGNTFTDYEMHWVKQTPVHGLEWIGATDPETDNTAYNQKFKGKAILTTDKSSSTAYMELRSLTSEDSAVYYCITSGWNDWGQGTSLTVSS VL: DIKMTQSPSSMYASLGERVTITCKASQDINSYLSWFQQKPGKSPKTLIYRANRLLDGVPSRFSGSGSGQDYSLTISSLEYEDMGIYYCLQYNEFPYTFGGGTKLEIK ) 93
